B1: Cytochrome c-551, P00099 (parent)
chain: MKPYALLSLLATGTLLAQGAWAEDPEVLFKNKGCVACHAIDTKMVGPAYKDVAAKFAGQAGAEAELAQRIKNGSQGVWGPIPMPPNAVSDDEAQTLAKWVLSQK

Variants of: B1
testSettings: Pseudomonas aeruginosa (strain ATCC 15692 / DSM 22644 / CIP 104116 / JCM 14847 / LMG 12228 / 1C / PRS 101 / PAO1); pH 3.6; 25 °C; GdnHCl; CD; Sodium acetate 20 mM; structure 451C; whole UniProt chain shown
Property: denaturant midpoint (higher = more stable); scope: individual variants
Write the answer as a number in M, unit excluded.

Example results:
V100I
1.89
F29A V35M
2.18
F56Y
1.6

denaturant midpoint (higher = more stable) for F56Y E65Y is 1.8

The reported value for F29A V35M F56Y E65Y in terms of denaturant midpoint (higher = more stable) is 2.59

denaturant midpoint (higher = more stable) reported for this variant F56Y E65Y V100I : 2.25

GET /value?item= E65Y &field=denaturant midpoint (higher = more stable) returns 1.46

So for F29A V35M V100I , the logged denaturant midpoint (higher = more stable) turned out to be 2.46

Quick note, denaturant midpoint (higher = more stable) for F29A V35M F56Y E65Y V100I landed at 2.95
